Assay: Binding affinity to triplex DNA1 containing 15 nucleotide-long triplex-forming region (unknown origin) assessed as change in melting temperature at 10 uM by UV based assay
parameterMeasured: ΔTm (°C)

> print(dat)
                               recordsmiles  reading
1  CCCCN(CCCC)CCCCOc1cc(OC)cc2oc(-c3ccc(OC)c(OC)c3)c(OC)c(=O)c12      5.6
2  CCCN(CCC)CCCCOc1cc(OC)cc2oc(-c3ccc(OC)c(OC)c3)c(OC)c(=O)c12     11.2
3  CCN(CC)CCCCOc1cc(OC)cc2oc(-c3ccc(OC)c(OC)c3)c(OC)c(=O)c12     11.2

[1] CCCCCN(CCCCC)CCCCOc1cc(OC)cc2oc(-c3ccc(OC)c(OC)c3)c(OC)c(=O)c12
[2] COc1cc(OCCCCN2CCCCC2)c2c(=O)c(OC)c(-c3ccc(OC)c(OC)c3)oc2c1
IN: Would you let me know which has the greater ΔTm value, 1 or 2 ? Please identify the chosen entry by its label.
OUT: 2
